Readings of IC50 for the listed compounds
# System: leukemia tumour line L 1210
# method description: In vitro cytotoxic activity on leukemia tumour line L 1210
# Format: cell-based
# particulars: Mus musculus, L1210, 48 h, L 1210, 48 hours contact, 37° C.; read-out: I D 50 (concentration which inhibits the proliferation of the cells by 50%)
Counter-ions that a name gives are not always drawn.
Please state the figure in nM; there is no need to write the unit.

Look over these answered cases.
CCN(CC)CCCNc1ncc(C)c2c1c1cc(OC)ccc1n2C    100
CCN(CC)CCNc1ncc(C)c2c1c1cc(OC)ccc1n2C [Derivative No. 18, dihydrochloride]    1200

Okay, next one:
Task: Item under review: "CCN(CC)CCCCNc1ncc(C)c2c1c1cc(O)ccc1n2C" . Reported IC50?
Output: 310

Measured values drawn from patent US4835160A for this set.
